Parameter emission maximum: see the listing below.
Assay: solvent given as SMILES
Conditions: in CCOC(C)=O
Answer in nm, number only, no unit symbol.

Solved cases below.
molecule	unit	emission maximum
c1cc2ccc3cc4[nH]ccc4c4ccc(c1)c2c34	nm	398
COc1cc(N(c2ccc(C=C(C#N)C#N)c(OC)c2)c2ccc(C=C(C#N)C#N)c(OC)c2)ccc1C=C(C#N)C#N	nm	532
CC1=CC(C)=[N+]2C1=C(c1ccc(N3CCCCC3)cc1)c1c(C)cc(C)n1[B-]2(F)F	nm	515
CC1=[N+]2C(=C(NC(C)c3ccccc3)c3ccc(C)n3[B-]2(F)F)C=C1c1cc2n(c1)[B-](F)(F)[N+]1=CC=CC1=C2c1c(C)cc(C)cc1C (stereo not drawn)	nm	700
CN(C)c1ccc(-c2nc3c(c4c2-c2ccccc2CC4)-c2ccccc2CC3)cc1	nm	449
c1ccc(N2c3ccc4ccccc4c3-c3c4ccccc4nc[n+]3[B-]2(c2ccccc2)c2ccccc2)cc1	nm	665
O=c1cc(C(F)(F)F)c2cc3c4c(c2o1)CCCN4CCC3	nm	501

Next molecule, please.
Req: Requested field: emission maximum. Item: COC1(OC)C2(Cl)c3nc4cc(-c5cccs5)ccc4nc3C1(Cl)C1C[C@H]3[C@@H](CC12)C1(Cl)c2nc4ccc(-c5cccs5)cc4nc2C3(Cl)C1(OC)OC (stereo partly drawn)
Resp: 439

----------
Experiment: solvent given as SMILES
Conditions: in CC(C)CO
property: emission maximum (nm)
Answer in nm, number only, no unit symbol.

> print(dat)
                                smiles.text  value.reported
1  COC1=C/C(=C\C=C2C=CN(Cc3ccc(Br)cc3)C=C2)C=CC1=O             642

Req: Requested field: emission maximum. Item: `CC(=O)Nc1ccc(/C=C2\OC(=O)c3cc(N)ccc32)cc1`
Resp: 482.86

Req: What do we get for `COCCOCCOCCOc1cc(C=O)c(OCCOCCOCCOC)cc1C=O` ?
Resp: 479

Req: What do we get for `COCCOc1cc(C=O)c(OCCOC)cc1C=O` ?
Resp: 479

----------
Assay: solvent given as SMILES
Details: in ClCCl
Entries whose emission maximum is below 500 nm take fulfilled; entries at or above 500 nm take not fulfilled.

Some solved cases for reference:
> print(dat)
                                smiles.text  discrete.label
1  CCOC(=O)c1c(-c2c(Cl)c3ccccc3oc2=O)nn(-c2cccc(C)c2)c1C(=O)OCC       fulfilled
2  C(C#Cc1ccc2ccc3cccc4ccc1c2c34)#Cc1cccc2ccccc12       fulfilled
3  N#Cc1ccc(N(c2ccc(C#N)cc2)c2ccc3c4cccc5c(N(c6ccc(C#N)cc6)c6ccc(C#N)cc6)ccc(c6cccc2c63)c54)cc1   not fulfilled
4  CCCCCCCCC1(CCCCCCCC)c2cc(C=O)ccc2-c2ccc(/C=C/c3ccc(N(c4ccccc4)c4ccccc4)cc3)cc21       fulfilled
5  CC1=C(c2cccs2)C(C)=[N+]2C1=C(c1ccc(OS(=O)(=O)c3ccc([N+](=O)[O-])cc3[N+](=O)[O-])cc1)c1c(C)c(-c3cccs3)c(C)n1[B-]2(F)F   not fulfilled
6  F[B-]1(F)n2c(ccc2N2CCOCC2)C(c2ccccc2)=C2C=CC(N3CCOCC3)=[N+]21   not fulfilled

Now, please, on to the next compound.
Req: Record `COC(=O)c1ccc(Oc2ccc3c4c(cccc24)C(=O)N(c2c(C(C)C)cccc2C(C)C)C3=O)cc1` : is its emission maximum strictly below 500 nm?
Resp: fulfilled
